Target: UniProt:P56817
Sequence (P56817 46-501, species assumed): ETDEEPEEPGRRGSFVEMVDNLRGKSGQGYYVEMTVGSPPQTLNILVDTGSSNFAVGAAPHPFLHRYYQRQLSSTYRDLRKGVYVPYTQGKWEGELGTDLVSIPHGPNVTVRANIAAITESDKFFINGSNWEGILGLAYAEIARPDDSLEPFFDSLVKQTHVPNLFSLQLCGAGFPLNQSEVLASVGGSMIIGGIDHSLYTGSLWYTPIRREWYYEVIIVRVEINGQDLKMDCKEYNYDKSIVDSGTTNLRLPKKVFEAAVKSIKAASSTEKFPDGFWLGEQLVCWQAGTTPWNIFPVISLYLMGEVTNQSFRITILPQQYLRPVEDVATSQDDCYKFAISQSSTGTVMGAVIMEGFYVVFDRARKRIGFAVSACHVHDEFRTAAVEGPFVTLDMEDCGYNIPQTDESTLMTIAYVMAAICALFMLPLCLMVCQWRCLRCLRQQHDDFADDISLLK
Experiment: In vitro enzymatic BACE FRET (fluorescence resonance energy transfer) assay
Format: biochemical
Settings: average IC50, enzyme assay; read-out: BACE 1 FRET assay
pIC50: −log10 of the molar value.
Assign True to entries whose pIC50 meets or exceeds 9; assign False to the rest.

Example entries begin here.
molecule	assigned class
COCC1SC(N)=N[C@@]12c1cc(-c3cccnc3F)ccc1Oc1c(F)cc(OC)cc12 (some centres unmarked)	False
COc1ccc(OC)c(-c2ccc3c(c2)[C@@]2(COC(N)=N2)c2cc(C4=CCOCC4)cnc2O3)c1	False
NC1=N[C@@]2(CO1)c1cc(-c3c(F)ccnc3F)ccc1Oc1cnc(Cl)cc12	False

Please tell me: is the molecule "NC1=N[C@@]2(CS1)c1cc(-c3cncnc3)c(F)cc1Oc1c(F)cc(C3=CCCOC3)cc12" at or over 9 in terms of pIC50?
True

Please tell me: is the molecule "COc1nc(-c2ccncc2)cc2c1Oc1ccc(-c3cccnc3)cc1[C@@]21COC(N)=N1" at or over 9 in terms of pIC50?
False
